Origin of measurements: ChEMBL document CHEMBL1127414

Molecular target: Squalene synthase (Rattus norvegicus, UniProt Q02769)
Sequence (Q02769 whole entry): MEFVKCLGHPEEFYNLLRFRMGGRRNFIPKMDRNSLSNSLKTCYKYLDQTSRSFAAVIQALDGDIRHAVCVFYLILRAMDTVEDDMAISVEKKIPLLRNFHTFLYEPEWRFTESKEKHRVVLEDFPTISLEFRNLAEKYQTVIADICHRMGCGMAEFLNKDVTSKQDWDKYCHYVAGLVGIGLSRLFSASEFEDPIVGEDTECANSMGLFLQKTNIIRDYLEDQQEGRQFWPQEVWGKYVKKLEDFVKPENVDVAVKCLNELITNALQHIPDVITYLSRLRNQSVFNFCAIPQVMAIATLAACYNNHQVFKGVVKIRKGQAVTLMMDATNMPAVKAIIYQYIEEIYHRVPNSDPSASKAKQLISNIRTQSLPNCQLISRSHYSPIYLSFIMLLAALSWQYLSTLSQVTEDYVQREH
Assay: Tested for inhibition against squalene synthase enzyme in rat liver
measured.metric: IC50 (nM)

Check out these entries, answers already filled in.
C=C(CCC12OC(C(=O)O)C(O)(C(=O)O)C(C(=O)O)(O1)[C@H](OCCCC)[C@H]2O)[C@@H](OC(C)=O)[C@H](C)Cc1ccccc1 (some centres not stated)
2
C=C(CCC12OC(C(=O)O)C(O)(C(=O)O)C(C(=O)O)(O1)[C@H](OCCCCCCCCCCCC)[C@H]2O)[C@@H](OC(C)=O)[C@H](C)Cc1ccccc1 (some centres not stated)
0.12
C=C(CCC12OC(C(=O)O)C(O)(C(=O)O)C(C(=O)O)(O1)[C@H](OC(=O)OC(C)C)[C@H]2O)[C@@H](OC(C)=O)[C@H](C)Cc1ccccc1 (some centres not stated)
3

1 = C=C(CCC12OC(C(=O)O)C(O)(C(=O)O)C(C(=O)O)(O1)[C@H](OC(=O)CCCCCCCCCCCCC)[C@H]2O)[C@@H](OC(C)=O)[C@H](C)Cc1ccccc1 (some centres not stated)
2 = C=C(CCC12OC(C(=O)O)C(O)(C(=O)O)C(C(=O)O)(O1)[C@H](OCCC(C)C)[C@H]2O)[C@@H](OC(C)=O)[C@H](C)Cc1ccccc1 (some centres not stated)
-- ask Hi, I'm comparing 1 with 2 and wondering which one has the bigger number for IC50. Any idea? I would appreciate it if you answered with the label of your choice.
-- reply 2
